The origin of these recorded values is the supplement of paper PMC7806825.

system: McpC ligand-binding domain (Salmonella Typhimurium SL1344); assay: protein melting temperature (Tm) in presence of compound (degrees C); higher = more thermal stabilisation (possible ligand binding); conditions: Biolog plate: PM05; compound stock concentration: 10-20 mM, 2 uL in 10 uL reaction
OBSERVATION_TYPE: protein melting temperature

# COMPOUND, protein melting temperature
rows = [
    ("O=C(O)c1cccnc1C(=O)O [Quinolinic acid]", 43.8),
    ("C[C@H](N)C(=O)O [L-Alanine]", 44.9),
    ("O=c1cc[nH]c(=O)[nH]1 [Uracil]", 42.7),
    ("Nc1nc2[nH]cnc2c(=O)[nH]1 [Guanine]", 44.4),
    ("CC(C)[C@H](N)C(=O)O [L-Valine]", 43.5),
    ("Nc1ncnc2c1ncn2[C@@H]1O[C@H](CO)[C@@H](O)[C@H]1O [Adenosine]", 44.1),
    ("Nc1ncnc2c1ncn2[C@@H]1O[C@@H]2COP(=O)(O)O[C@H]2[C@H]1O [Adenosine 3`,5`-Cyclic Monophosphate]", 44.4),
    ("NCCCCN [Putrescine]", 44.1),
    ("N[C@@H](CC(=O)O)C(=O)O [L-Aspartic acid]", 44.2),
    ("C[N+](C)(C)CCO [Choline]", 43.1),
    ("N[C@H]1CCOC1=O [L-Homoserine Lactone]", 44.5),
    ("Cc1cn([C@H]2C[C@H](O)[C@@H](CO)O2)c(=O)[nH]c1=O [Thymidine]", 44.7),
    ("NC(=O)CC[C@H](N)C(=O)O [L-Glutamine]", 44.9),
    ("CC1=CC(=O)c2ccccc2C1=O [Menadione]", 42.6),
    ("Cc1ncc(C[n+]2csc(CCOP(=O)(O)OP(=O)(O)O)c2C)c(N)n1 [Thiamine Pyrophosphate]", 43.7),
    ("O=C(O)CC(=O)C(=O)O [Oxaloacetic acid]", 43.8),
    ("CC1(O)CCOC(=O)C1 (racemic) [DL-Mevalonic acid Lactone]", 43.8),
    ("CSCC[C@H](N)C(=O)O [L-Methionine]", 44.4),
    ("NC(=O)c1ccc[n+](C2OC(COP(=O)([O-])OP(=O)(O)OCC3OC(n4cnc5c(N)ncnc54)C(O)C3O)C(O)C2O)c1 (centres undefined) [b-Nicotinamide Adenine Dinucleotide]", 44.8),
    ("O=C(O)[C@@H]1CCCN1 [L-Proline]", 44.2),
    ("NCCCNCCCCNCCCN [Spermine]", 43.8),
    ("N[C@@H](Cc1ccccc1)C(=O)O [L-Phenylalanine]", 43.8),
    ("CCCCCCCC/C=C\\CCCCCCCC(=O)OCCOCC(OCCO)C1OCC(OCCO)C1OCCO (centres undefined) [Tween 80]", 43.9),
    ("C[C@@H](O)[C@H](N)C(=O)O [L-Threonine]", 43.8),
    ("N[C@@H](Cc1ccc(O)cc1)C(=O)O [L-Tyrosine]", 43.9),
    ("CC(=O)N(O)CCCCCNC(=O)CCC(=O)N(O)CCCCCNC(=O)CCC(=O)N(O)CCCCCN [Deferoxamine]", 44.4),
    ("Nc1ncnc2c1ncn2[C@H]1C[C@H](O)[C@@H](CO)O1 [2`-Deoxyadenosine]", 44),
    ("O=C(O)CCCC[C@@H]1SC[C@@H]2NC(=O)N[C@@H]21 [D-Biotin]", 44.5),
    ("Nc1nc2c(ncn2[C@H]2C[C@H](O)[C@@H](CO)O2)c(=O)[nH]1 [2`-Deoxyguanosine]", 43.7),
    ("N[C@H](CCC(=O)O)C(=O)O [D-Glutamic acid]", 44.8),
    ("Nc1[nH]cnc2ncnc1-2 [Adenine]", 44.1),
    ("C[C@@H](N)C(=O)O [D-Alanine]", 44),
    ("Cc1ncc(CO)c(CO)c1O [Pyridoxine]", 43.8),
    ("CC(C)C[C@H](N)C(=O)O [L-Leucine]", 44.6),
    ("CC[C@H](O)C(=O)O [a-Hydroxybutyric acid]", 43.7),
    ("N[C@@H](Cc1c[nH]c2ccccc12)C(=O)O [L-Tryptophan]", 44),
    ("Nc1cc[nH]c(=O)n1 [Cytosine]", 44.3),
    ("N[C@@H](CCC(=O)N[C@@H](CS)C(=O)NCC(=O)O)C(=O)O [Glutathione]", 43.6),
    ("Nc1ccn([C@@H]2O[C@H](CO)[C@@H](O)[C@H]2O)c(=O)n1 [Cytidine]", 43.9),
]
